- Tested on: HeLa Kyoto;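 also: HeLa Kyoto cells synchronized by double thymidine or nocodazole block, proteins quantified by TMT10plex mass spectrometry, three independent biological replicates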
- experimental details: melting temperature (median over replicates), in situ; higher = more thermally stable
- experimental context: cell cycle stage: G1/S
Form field: melting temperature (one value per entry).
Give just the number in °C; leave the unit off.

- MAKKTYDLLFKLLLIGDSGVGKTCVLFRFSDDAFNTTFISTIGIDFKIKTVELQGKKIKLQIWDTAGQERFHTITTSYYRGAMGIMLVYDITNGKSFENISKWLRNIDEHANEDVERMLLGNKCDMDDKRVVPKGKGEQIAREHGIRFFETSAKANINIEKAFLTLAEDILRKTPVKEPNSENVDISSGGGVTGWKSKCC [RAB10]: 57.5

Now for the sequence whose melting temperature we want.
Input line: // melting temperature lookup, key: MEGNRDEAEKCVEIAREALNAGNREKAQRFLQKAEKLYPLPSARALLEIIMKNGSTAGNSPHCRKPSGSGDQSKPNCTKDSTSGSGEGGKGYTKDQVDGVLSINKCKNYYEVLGVTKDAGDEDLKKAYRKLALKFHPDKNHAPGATDAFKKIGNAYAVLSNPEKRKQYDLTGNEEQACNHQNNGRFNFHRGCEADITPEDLFNIFFGGGFPSGSVHSFSNGRAGYSQQHQHRHSGHEREEERGDGGFSVFIQLMPIIVLILVSLLSQLMVSNPPYSLYPRSGTGQTIKMQTENLGVVYYVNKDFKNEYKGMLLQKVEKSVEEDYVTNIRNNCWKERQQKTDMQYAAKVYRDDRLRRKADALSMDNCKELERLTSLYKGG [DNAJB14]
Output line: 51.3
